# target_of_assay: mu opioid receptor (Homo sapiens, UniProt P35372)
# Sequence (P35372 whole entry): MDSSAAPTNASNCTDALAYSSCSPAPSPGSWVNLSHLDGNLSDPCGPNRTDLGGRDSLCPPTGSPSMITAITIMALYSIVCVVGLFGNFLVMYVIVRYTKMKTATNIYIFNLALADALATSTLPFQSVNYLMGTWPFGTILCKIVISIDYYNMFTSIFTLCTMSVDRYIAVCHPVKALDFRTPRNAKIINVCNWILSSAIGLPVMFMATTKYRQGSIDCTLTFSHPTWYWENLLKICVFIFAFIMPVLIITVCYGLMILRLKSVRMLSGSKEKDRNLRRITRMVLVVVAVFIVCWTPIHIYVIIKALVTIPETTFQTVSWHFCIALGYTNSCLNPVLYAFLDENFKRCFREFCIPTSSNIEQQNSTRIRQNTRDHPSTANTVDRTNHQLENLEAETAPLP
Counter-ions that a name gives are not always drawn.
Would you mind telling me the reported pIC50 of each entry?
Just so you know, pIC50 here is -log10 of the concentration in molar units; reply with that number alone.

The molecule COc1ccc2c(c1)C1(CC(=O)NC1=O)CC2c1ccc(Cl)c(Cl)c1 (racemic) [Compound 1c] showed pIC50 equal to 4.00

What the record says about c1ccc(C2CC3(CCNC3)c3ccccc32)cc1 (racemic) [Compound 3a, 3-Phenylspiro[indan-1,3'-pyrrolidine]] : pIC50 is 6.30

GET /value?item= c1ccc(C2CC3(CCN(CC4CC4)C3)c3ccccc32)cc1 (racemic) [Compound 4a, hydrochloride] &field=pIC50 returns 6.01

So for O=C1C[C@@]2(C[C@@H](c3ccccc3)c3ccccc32)C(=O)N1 (relative stereo) [Compound 1a] , the logged pIC50 turned out to be 4.00

Oc1ccc2c(c1)C1(CCNC1)CC2c1ccc(Cl)c(Cl)c1 (racemic) [Compound 3d] has a reported pIC50 of 5.54

Value of measured pIC50 for the entry COc1ccc2c(c1)C1(CCNC1)CC2c1ccc(Cl)c(Cl)c1 (racemic) [Compound 3c] : 5.30

---

For each record, write down the corresponding IC50.
# target_of_assay: SERT-1, cocaine binding site on the serotonin transporter (Homo sapiens, UniProt P31645)
# Sequence (P31645 whole entry): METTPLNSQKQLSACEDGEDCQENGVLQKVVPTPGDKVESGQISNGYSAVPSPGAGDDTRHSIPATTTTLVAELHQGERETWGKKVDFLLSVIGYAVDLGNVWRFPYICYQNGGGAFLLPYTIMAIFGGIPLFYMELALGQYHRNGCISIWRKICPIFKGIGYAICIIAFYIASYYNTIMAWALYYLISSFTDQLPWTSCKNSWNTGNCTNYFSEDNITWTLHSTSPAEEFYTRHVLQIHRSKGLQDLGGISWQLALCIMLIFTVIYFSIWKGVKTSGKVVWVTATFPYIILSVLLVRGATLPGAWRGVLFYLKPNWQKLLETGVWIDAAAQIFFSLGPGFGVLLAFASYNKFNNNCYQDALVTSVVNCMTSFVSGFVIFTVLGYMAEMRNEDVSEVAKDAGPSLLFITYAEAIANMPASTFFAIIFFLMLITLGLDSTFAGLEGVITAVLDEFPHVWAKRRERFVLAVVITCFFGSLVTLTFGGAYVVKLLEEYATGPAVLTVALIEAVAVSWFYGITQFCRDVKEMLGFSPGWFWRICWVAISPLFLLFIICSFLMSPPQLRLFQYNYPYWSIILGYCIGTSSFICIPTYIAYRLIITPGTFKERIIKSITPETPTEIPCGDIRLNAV
# assay_comment: biochemical
Structures can show the parent of a compound that is named as a salt.
Field: numeric (nM). Do not append units.

Considering c1ccc(C2CC3(CCNC3)c3ccccc32)cc1 (racemic) [Compound 3a, 3-Phenylspiro[indan-1,3'-pyrrolidine]] , its IC50 with SERT-1, cocaine binding site on the serotonin transporter (Homo sapiens, UniProt P31645) was recorded as 10

Form field IC50 for item O=C1C[C@@]2(C[C@@H](c3ccccc3)c3ccccc32)C(=O)N1 (relative stereo) [Compound 1a] on SERT-1, cocaine binding site on the serotonin transporter (Homo sapiens, UniProt P31645): 26700

The recorded IC50 with SERT-1, cocaine binding site on the serotonin transporter (Homo sapiens, UniProt P31645) for Oc1ccc2c(c1)C1(CCNC1)CC2c1ccc(Cl)c(Cl)c1 (racemic) [Compound 3d] was 750

Item COc1ccc2c(c1)C1(CCNC1)CC2c1ccc(Cl)c(Cl)c1 (racemic) [Compound 3c] ; assay system SERT-1, cocaine binding site on the serotonin transporter (Homo sapiens, UniProt P31645); IC50 reported as 2

SERT-1, cocaine binding site on the serotonin transporter (Homo sapiens, UniProt P31645) assay, compound COc1ccc2c(c1)C1(CC(=O)NC1=O)CC2c1ccc(Cl)c(Cl)c1 (racemic) [Compound 1c] , recorded IC50 = 250

SERT-1, cocaine binding site on the serotonin transporter (Homo sapiens, UniProt P31645) data for c1ccc(C2CC3(CCN(CC4CC4)C3)c3ccccc32)cc1 (racemic) [Compound 4a, hydrochloride] ; its IC50: 2410

---

Answer each item with its documented pIC50.
# target_of_assay: SERT-2, paroxetine binding site on the serotonin transporter (Homo sapiens, UniProt P31645)
# Sequence (P31645 whole entry): as the sequence (P31645 whole entry) above
# assay_comment: biochemical
Structures can show the parent of a compound that is named as a salt.
Worth noting: pIC50 values are minus log10 of concentrations stated in mol/L.

// field: pIC50; key: Oc1ccc2c(c1)C1(CCNC1)CC2c1ccc(Cl)c(Cl)c1 (racemic) ; value = 6.52

Query c1ccc(C2CC3(CCN(CC4CC4)C3)c3ccccc32)cc1 (racemic) [Compound 4a, hydrochloride] yields pIC50 of 5.70

Per the record, COc1ccc2c(c1)C1(CCNC1)CC2c1ccc(Cl)c(Cl)c1 (racemic) has pIC50 of 6.40

Summary for this compound, c1ccc(C2CC3(CCNC3)c3ccccc32)cc1 (racemic) [Compound 3a, 3-Phenylspiro[indan-1,3'-pyrrolidine]] : pIC50 is 5.60

---

Counter-ions that a name gives are not always drawn.
measure: IC50 (µM)
# unit: µM | format: bare number

# Oc1ccc2c(c1)C1(CCNC1)CC2c1ccc(Cl)c(Cl)c1 (racemic) [Compound 3d] with kappa opioid receptor (Homo sapiens, UniProt P41145): IC50 is 1.52

kappa opioid receptor (Homo sapiens, UniProt P41145) data for COc1ccc2c(c1)C1(CCNC1)CC2c1ccc(Cl)c(Cl)c1 (racemic) [Compound 3c] ; its IC50: 80

Response field IC50 (kappa opioid receptor (Homo sapiens, UniProt P41145)) for item c1ccc(C2CC3(CCN(CC4CC4)C3)c3ccccc32)cc1 (racemic) [Compound 4a, hydrochloride] : 1

Readout IC50 for c1ccc(C2CC3(CCNC3)c3ccccc32)cc1 (racemic) [Compound 3a, 3-Phenylspiro[indan-1,3'-pyrrolidine]] , test system kappa opioid receptor (Homo sapiens, UniProt P41145), was 10

---

# target_of_assay: DAT, dopamine transporter (Homo sapiens)
# Sequence (Q01959 whole entry): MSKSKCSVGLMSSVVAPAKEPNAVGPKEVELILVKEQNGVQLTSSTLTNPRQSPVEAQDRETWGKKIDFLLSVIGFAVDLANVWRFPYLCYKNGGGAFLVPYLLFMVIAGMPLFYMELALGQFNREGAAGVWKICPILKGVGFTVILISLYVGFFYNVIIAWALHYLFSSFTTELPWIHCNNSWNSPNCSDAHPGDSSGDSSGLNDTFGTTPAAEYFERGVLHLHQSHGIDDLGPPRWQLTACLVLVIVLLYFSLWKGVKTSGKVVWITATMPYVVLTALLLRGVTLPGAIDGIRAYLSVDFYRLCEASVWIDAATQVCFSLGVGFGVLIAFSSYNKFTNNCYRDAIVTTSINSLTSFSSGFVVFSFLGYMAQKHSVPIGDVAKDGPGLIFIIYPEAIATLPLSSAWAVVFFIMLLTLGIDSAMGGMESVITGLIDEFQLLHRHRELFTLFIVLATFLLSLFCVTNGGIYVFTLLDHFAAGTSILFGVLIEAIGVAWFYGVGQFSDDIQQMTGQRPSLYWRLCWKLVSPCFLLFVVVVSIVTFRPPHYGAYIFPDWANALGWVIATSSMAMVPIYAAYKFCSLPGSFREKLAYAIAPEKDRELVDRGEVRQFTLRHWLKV
# assay_comment: radioligand binding, DAT ([^3 H]WIN35,428)
# settings: radioligand [^3 H]WIN35,428; racemic; spiroindanamines as hydrochlorides; read-out: Affinity (IC50) DAT ([^3 H]WIN35,428)
Structures can show the parent of a compound that is named as a salt.
measure: pIC50
Quick note: pIC50 values are minus log10 of concentrations in mol/L.

In plain terms, Oc1ccc2c(c1)C1(CCNC1)CC2c1ccc(Cl)c(Cl)c1 (racemic) has a documented pIC50 of 6.14

Recorded pIC50 (compound c1ccc(C2CC3(CCNC3)c3ccccc32)cc1 (racemic) [Compound 3a, 3-Phenylspiro[indan-1,3'-pyrrolidine]] ): 6.70

# pIC50 (compound: c1ccc(C2CC3(CCN(CC4CC4)C3)c3ccccc32)cc1 (racemic) [Compound 4a, hydrochloride] ) is 5.54

Kindly note the recorded pIC50 for COc1ccc2c(c1)C1(CCNC1)CC2c1ccc(Cl)c(Cl)c1 (racemic) , which is 6.82

These entries and their values trace back to patent US5948807A.
